Values compiled from paper PMC7035970.

Tested on: M. tuberculosis strain fgd1∷tn
EXPERIMENT_SUMMARY: MIC versus F420H2 deficient strain fgd1∷tn
Type: cell-based, Mycobacterium tuberculosis
REPORTED_CONDITIONS: Mycobacterium tuberculosis
PROPERTY_LABEL: MIC (µM)
Number in µM, nothing else.

Find the recorded MIC belonging to O=[N+]([O-])c1ccc(/C=N/Nc2nc(Nc3ccccc3)nc(Nc3ccccc3)n2)o1 and report it.
1.3

Find the recorded MIC belonging to O=[N+]([O-])c1ccc(/C=N/Nc2nc(Nc3ccccc3)nc(N3CCOCC3)n2)o1 and report it.
10

Find the recorded MIC belonging to NNC(=O)c1ccncc1 [INH, reference compound] and report it.
0.16
